System: JJN-3 cells
Test: Antiproliferative activity on JJN-3 (NIK translocated) multiple myeloma cells (CellTiter-Glo)
Format: cell-based, human
Details: JJN-3 (NIK translocated) cells, 96 hr treatment, averaged values, read-out: JJN-3 Proliferation inhibition (IC50 (nM))
resultType: IC50 (nM)
One number for each entry, in nM.

Would you please look over these solved cases?
| compound | resultType | number |
| --- | --- | --- |
| CC1CCn2ncc(Nc3nccc(-c4cc(C#N)c5c(c4)[C@@](C)(CO)CN5)n3)c2O1 (single isomer, unassigned) | IC50 | 93 |
| CN(C)C1COc2c(cc(Cl)cc2Nc2nccc(-c3cc(C#N)c4c(c3)[C@@](C)(CO)CN4)n2)C1 (stereo partly drawn) [Compound 18] | IC50 | 1 |

Now for another entry.
Incoming: Fill blank: measured IC50 of the compound CN(C)C(=O)C1COc2c(cc(Cl)cc2Nc2nccc(-c3cc(C#N)c4c(c3)[C@@](C)(CO)CN4)n2)C1 (stereo partly drawn) is ____.
Outgoing: 22
